Value source: PubChem BioAssay AID504332

biological target: Histone-lysine N-methyltransferase EHMT2 (Homo sapiens) (UniProt Q96KQ7); experiment: qHTS Assay for Inhibitors of Histone Lysine Methyltransferase G9a; conditions: G9a H3K9 monomethylation, AlphaScreen, 2 h; series mostly up to 59 µM; note: nearly all actives have a fitted effect of over 75% in size
Sequence (Q96KQ7 913-1193 limits assumed): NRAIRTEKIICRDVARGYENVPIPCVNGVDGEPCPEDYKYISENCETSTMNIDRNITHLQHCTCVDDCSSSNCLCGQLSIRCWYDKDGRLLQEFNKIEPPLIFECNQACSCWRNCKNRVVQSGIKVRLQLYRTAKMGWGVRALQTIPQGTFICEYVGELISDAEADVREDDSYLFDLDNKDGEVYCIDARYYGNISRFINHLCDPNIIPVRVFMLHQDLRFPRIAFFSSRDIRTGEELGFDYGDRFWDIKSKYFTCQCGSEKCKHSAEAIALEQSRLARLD
Out of some 350,000 compounds screened, about 31,000 (8.9%) were called active. Another 15% or so got no clear call; they are omitted. Calls come from the whole dose curve; as a rule, active = well fitted inhibition curve with a large enough effect; inconclusive = small, poorly fitted or top-dose-only effect; inactive = no such curve, though single readings can be large or run the other way. For the sample, actives were picked, then their nearest neighbours and some compounds at random.
# output must be one of active, inactive

Example cases with answers are listed next.
CC(C)CCN1NC2(CCC(C)CC2)NC1=S (stereo unspecified) ... active
COCCCn1c(SCC(=O)Nc2oc(C)c3c(C)n[nH]c(=O)c23)nc2sc3c(c2c1=O)CCC3 ... active
O=C(CCCC(=O)N1CCN(c2cccc(Cl)c2)CC1)c1ccccc1 ... inactive
Cn1nnc2c(N3CCN(c4ccccc4)CC3)ncnc21 ... inactive
CSCCC1NC2(C(=O)Nc3ccc(Cl)cc32)[C@@H]2C(=O)N(C3CCCC3)C(=O)[C@H]12 (stereo partly specified) ... active

Next up:
Query: Please let me know the test result on file for COc1ccc(-c2cn3nc(N4CCCC(C(=O)NCCCOC(C)C)C4)sc3n2)cc1 (stereo unspecified) .
Response: inactive

---

molecular target: Histone-lysine N-methyltransferase EHMT2 (Homo sapiens); assay: qHTS Assay for Inhibitors of Histone Lysine Methyltransferase G9a; details: G9a H3K9 monomethylation, AlphaScreen, 2 h; series mostly up to 59 µM; note: nearly all actives have a fitted effect of over 75% in size
The whole screen tested about 350,000 compounds, of which about 31,000 (8.9%) were called active. Roughly 15% stayed inconclusive and do not appear here. Calls come from the whole dose curve; as a rule, active = well fitted inhibition curve with a large enough effect; inconclusive = small, poorly fitted or top-dose-only effect; inactive = no such curve, though single readings can be large or run the other way. The entries come from a sample that favours actives as a whole.
# output must be one of Y = active, N = inactive

CN1CCN(c2ccc(NC(=O)c3cc(Cl)c4c(c3)OCCO4)cc2)CC1 ... Y

Query: Please let me know the test result on file for CN1CCN(c2ccc(NC(=O)c3ccccc3)cc2)CC1 .
Response: N

Query: Please let me know the test result on file for O=C(Nc1cccc(Cl)c1N1CCOCC1)c1ccc2c(c1)OCCO2 .
Response: N

Query: Please let me know the test result on file for CN(C)CCn1c2c(c(SCC(=O)NCc3ccccc3)nc1=O)CCC2 .
Response: N

Query: Please let me know the test result on file for Cc1cccc(CC(=O)N2CC(=O)Nc3ccc(F)cc3C2c2ccccc2)c1 (stereo not drawn) .
Response: N

Query: Please let me know the test result on file for Cc1cccc(NC(=O)N2CCC(CN3CCc4ccccc4C3)CC2)c1C .
Response: N

Query: Please let me know the test result on file for COc1cccc(NC(=O)CN(C)C(=O)CSC(=S)N2CCCC2)c1 .
Response: Y

Query: Please let me know the test result on file for O=C(NC1CC(=O)N(c2ccc(F)cc2)C1)C1CCCCC1 (stereo not drawn) .
Response: N

Query: Please let me know the test result on file for Cc1nc(C)c(C(=O)Nc2cccc(C)c2C)o1 .
Response: Y

Query: Please let me know the test result on file for COc1ccccc1CC(=O)Nc1ccc(S(=O)(=O)N2CCCC2)cc1 .
Response: N

Query: Please let me know the test result on file for CCCC(=O)N1c2ccc(-c3csc(N)n3)cc2CC1C (stereo not drawn) .
Response: Y

Query: Please let me know the test result on file for Cc1ccc(NC(=O)c2csc3c2CCCC3)cc1 .
Response: N

Query: Please let me know the test result on file for Cc1cccc(NC(=O)c2ccc3nsnc3c2)c1C .
Response: N

Query: Please let me know the test result on file for O=C(c1ccc(CN2CCOCC2)cc1)N1CCN(c2ccccc2F)CC1 .
Response: N

Query: Please let me know the test result on file for CCN(C(=O)COc1ccc(C(=O)c2ccccc2)cc1)c1ccccc1 .
Response: N

Query: Please let me know the test result on file for COc1cccc(NC(=O)CN(C)C(=O)Cc2ccc(Cl)cc2Cl)c1 .
Response: N

Query: Please let me know the test result on file for COc1cccc(NC(=O)CN(C)CC(=O)Nc2ccc3c(c2)CCC3)c1 .
Response: N

Query: Please let me know the test result on file for COc1ccc(-c2nn3c(=O)cc(CN4CCN(C(=O)c5ccc(OC)c(OC)c5)CC4)nc3s2)cc1 .
Response: N

Query: Please let me know the test result on file for CCOc1cccc(NC(=O)C2CCCN(S(=O)(=O)c3ccc(OC)cc3)C2)c1 (stereo not drawn) .
Response: N

Query: Please let me know the test result on file for COc1ccc(OC)c(CNC(=O)Cn2nc(C)c3c(C)n(-c4ccc(C)cc4)nc3c2=O)c1 .
Response: N

Query: Please let me know the test result on file for Cc1cccc(NC(=O)c2ccc3nc(C(C)C)oc3c2)c1C .
Response: N

Query: Please let me know the test result on file for O=C(c1cccc2ccccc12)N1CCN(c2ccccc2F)CC1 .
Response: Y

Query: Please let me know the test result on file for CCN(CC(=O)Nc1ccc(S(=O)(=O)N2CCCC2)cc1)CC(=O)Nc1cccc(OC)c1 .
Response: Y
